FYI, the data here is from patent US9388147B2.

Target: S1P1/EDG1 (Homo sapiens, UniProt P21453)
Sequence (P21453 whole entry): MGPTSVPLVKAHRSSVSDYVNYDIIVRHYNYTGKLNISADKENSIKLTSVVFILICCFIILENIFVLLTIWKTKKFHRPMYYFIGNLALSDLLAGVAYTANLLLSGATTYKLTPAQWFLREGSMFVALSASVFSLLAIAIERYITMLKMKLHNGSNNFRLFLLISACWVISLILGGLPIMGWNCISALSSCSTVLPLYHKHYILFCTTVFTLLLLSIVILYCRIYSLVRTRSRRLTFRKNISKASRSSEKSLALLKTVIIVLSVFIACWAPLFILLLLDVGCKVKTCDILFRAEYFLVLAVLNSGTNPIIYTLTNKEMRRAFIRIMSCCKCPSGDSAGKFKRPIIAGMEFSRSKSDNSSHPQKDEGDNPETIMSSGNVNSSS
Assay: S1P1 CRE-bla CHOK1 reporter assay, inhibition of Forskolin induced cAMP
Type: cell-based
Settings: agonist activity range, S1P1 CRE-bla CHOK1, 2 μM Forskolin; read-out: S1P1 ACTIVITY
PROPERTY LABEL: EC50

CC(C)Oc1ccc(-c2nc(-c3cccc4c3CC[C@H]4NC(=O)N3CCNCC3)no2)cc1C#N : 0.5 to 5 nM
CC(C)Oc1ccc(-c2nc(-c3cccc4c3CCC4NS(=O)(=O)CCN(C)C)no2)cc1C#N (stereo in doubt) : 0.05 to 0.5 nM
CC(C)Oc1ccc(-c2nc(-c3cccc4c3CC[C@@H]4N3CC(C(=O)N4CCC4)C3)no2)cc1C#N : 0.05 to 0.5 nM
CC(C)Oc1ccc(-c2nc(-c3cccc4c3CC[C@H]4NCC(=O)N3CC[C@@H](O)C3)no2)cc1C#N : 0.05 to 0.5 nM

Below are some compounds; for each one, tell me its EC50.
1. CC(C)Oc1ccc(-c2nc(-c3cccc4c3CC[C@@H]4NCC(F)F)no2)cc1C#N
2. CCOc1ccc(-c2nc(-c3cccc4c3CC[C@H]4O)no2)cc1C#N
3. CC(C)Oc1ccc(-c2nc(-c3cccc4c3CC[C@H]4NS(=O)(=O)CCN3CCCC3)no2)cc1C#N

## Output
1: 0.05 to 0.5 nM; 2: 0.05 to 0.5 nM; 3: 0.5 to 5 nM

----------
Target: S1P1/EDG1 (Homo sapiens)
Assay: S1P1 CRE-bla CHOK1 reporter assay, inhibition of Forskolin induced cAMP
Format: cell-based
Conditions: agonist activity range, S1P1 CRE-bla CHOK1, 2 μM Forskolin; read-out: S1P1 ACTIVITY
pEC50: −log10 of the molar value.
PROPERTY LABEL: pEC50

CC(C)Oc1ccc(-c2nc(-c3cccc4c3CC[C@H]4NS(=O)(=O)Cc3ccccc3)no2)cc1C#N : 8.30 to 9.30
CNCCS(=O)(=O)NC1CCc2c(-c3noc(-c4ccc(OC(C)C)c(C#N)c4)n3)cccc21 (stereo in doubt) : 8.30 to 9.30
COC(=O)N[C@@H]1CCc2c(-c3noc(-c4ccc(OC(C)C)c(C#N)c4)n3)cccc21 : 9.30 to 10.30
CC(C)Oc1ccc(-c2nc(-c3cccc4c3CC[C@H]4NC(=O)N3CCC(CC(=O)O)CC3)no2)cc1C#N : 8.30 to 9.30
COCCS(=O)(=O)N[C@H]1CCc2c(-c3noc(-c4ccc(OC(C)C)c(C#N)c4)n3)cccc21 : 9.30 to 10.30
CC(C)Oc1ccc(-c2nc(-c3cccc4c3CC[C@H]4NC(=O)N3CC(O)C3)no2)cc1C#N : 9.30 to 10.30

Attention now turns to another entry.
pEC50 in this record for `N#Cc1cc(OC(F)(F)F)cc(-c2nc(-c3cccc4c3CC[C@H]4N)no2)c1` : < 8.30

----------
Exercise: for every item that follows, state its recorded EC50.
Target: S1P1/EDG1 (Homo sapiens, UniProt P21453)
Experiment: S1P1 CRE-bla CHOK1 reporter assay, inhibition of Forskolin induced cAMP
Format: cell-based
Settings: agonist activity range, S1P1 CRE-bla CHOK1, 2 μM Forskolin; read-out: S1P1 ACTIVITY

Example cases with answers are listed next.
CC(C)Oc1ccc(-c2nc(-c3cccc4c3CC[C@H]4NCC(N)=O)no2)cc1C#N [Compound 51] : < 0.05 nM
CC(C)Oc1ccc(-c2nc(-c3cccc4c3CC[C@H]4NC(=O)N3CCC(N(C)C)CC3)no2)cc1C#N [Compound 246] : > 5 nM
CNCCNC1CCc2c(-c3noc(-c4ccc(OC(C)C)c(C#N)c4)n3)cccc21 (racemic) [Compound 27] : 0.5 to 5 nM
CC(=O)Nc1ccc(S(=O)(=O)NC2CCc3c(-c4noc(-c5ccc(OC(C)C)c(C#N)c5)n4)cccc32)cc1 (stereo in doubt) [Compound 82] : > 5 nM
CC(C)Oc1ccc(-c2nc(-c3cccc4c3CCC4NC[C@@H](O)CO)no2)cc1C#N (mixture of isomers) [Compound 30] : 0.05 to 0.5 nM
CC(C)Oc1ccc(-c2nc(-c3cccc4c3CC[C@H]4N)no2)cc1Cl [Compound 95] : > 5 nM

Attention now turns to another entry.
Noted EC50 for CC(C)Oc1ccc(-c2nc(-c3cccc4c3CCC4N3CC[C@H](O)C3)no2)cc1C#N (mixture of isomers) [Compound 34] , tested on S1P1/EDG1 (Homo sapiens, UniProt P21453): 0.5 to 5 nM

----------
Assay: Evaluation of therapeutic index in rats: 5 or 14 day toxicology study, lung to body weight ratio
Type: in vivo, Sprague-Dawley rat
Details: therapeutic index: dose producing 10% lung weight increase / dose producing 50% T-cell depletion; 5 day toxicology study in rats
Exercise: for every item that follows, state its recorded TI 5 days.
Answers are plain numbers.

Example cases with answers are listed next.
COCCS(=O)(=O)N[C@H]1CCc2c(-c3noc(-c4ccc(OC(C)C)c(C#N)c4)n3)cccc21 : 20
CC(C)Oc1ccc(-c2nc(-c3cccc4c3CC[C@H]4NS(=O)(=O)CCO)no2)cc1C#N : 16
CC(C)Oc1ccc(-c2nc(-c3cccc4c3CC[C@@H]4NC(=O)N3CC(O)C3)no2)cc1C#N : 6

Below are some compounds; for each one, tell me its TI 5 days.
1. CC(C)Oc1ccc(-c2nc(-c3cccc4c3CC[C@H]4NC(=O)N3CC(O)C3)no2)cc1C#N
2. CC(C)Oc1ccc(-c2nc(-c3cccc4c3CC[C@@H]4NS(=O)(=O)CCO)no2)cc1C#N

## Output
1. 24
2. 10

----------
Target: S1P1/EDG1 (Homo sapiens)
Assay: S1P1 CRE-bla CHOK1 reporter assay, inhibition of Forskolin induced cAMP
Format: cell-based
Settings: agonist activity range, S1P1 CRE-bla CHOK1, 2 μM Forskolin; read-out: S1P1 ACTIVITY
Structures can show the parent of a compound that is named as a salt.
PROPERTY LABEL: EC50

CC(C)Oc1ccc(-c2nc(-c3cccc4c3CCC4N3CCCCC3)no2)cc1C#N (racemic) [Compound 48] : > 5 nM
CC(C)Oc1ccc(-c2nc(-c3cccc4c3CC[C@@H]4NS(=O)(=O)CCC3CCC3)no2)cc1C#N [Compound 168] : 0.05 to 0.5 nM
CC(C)Oc1ccc(-c2nc(-c3cccc4c3CC[C@H]4N(C)CC(=O)N(C)C)no2)cc1C#N [Compound 115] : 0.5 to 5 nM
CCN[C@H]1CCc2c(-c3noc(-c4ccc(OC(C)C)c(C#N)c4)n3)cccc21 [Compound 107] : 0.05 to 0.5 nM
N#Cc1cc(-c2nc(-c3cccc4c3CCC4NCCO)no2)ccc1OCC(=O)O (racemic) [Compound 109] : > 5 nM
CC(C)Oc1ccc(-c2nc(-c3cccc4c3CC[C@@H]4NC(=O)N3CCC[C@@H](O)C3)no2)cc1C#N [Compound 220] : 0.05 to 0.5 nM

Below are some molecules; for each one, tell me its EC50.
1. CC(C)Oc1ccc(-c2nc(-c3cccc4c3CC[C@@H]4NC(=O)N3CCOCC3)no2)cc1C#N [Compound 212]
2. CC(C)Oc1ccc(-c2nc(-c3cccc4c3CC[C@H]4NCC(=O)N(C)C)no2)cc1C#N [Compound 90, hydrochloride]
3. CC(C)Oc1ccc(-c2nc(-c3cccc4c3CC[C@H]4NC(=O)N3CC[C@@H](N(C)C)C3)no2)cc1C#N [Compound 242]
4. CC(C)Oc1ccc(-c2nc(-c3cccc4c3CC[C@@H]4NCc3cncs3)no2)cc1C#N [Compound 161]

## Output
["0.05 to 0.5 nM", "0.05 to 0.5 nM", "0.5 to 5 nM", "0.05 to 0.5 nM"]

----------
Biological target: S1P1/EDG1 (Homo sapiens)
Test: S1P1 CRE-bla CHOK1 reporter assay, inhibition of Forskolin induced cAMP
Type: cell-based
Details: agonist activity range, S1P1 CRE-bla CHOK1, 2 μM Forskolin; read-out: S1P1 ACTIVITY
pEC50: −log10 of the molar value.
PROPERTY LABEL: pEC50

CC(C)Oc1ccc(-c2nc(-c3cccc4c3CC[C@@H]4NC(=O)CO)no2)cc1C#N [Compound 137] : > 10.30
CC(C)Oc1ccc(-c2nc(-c3cccc4c3CC[C@H]4NC(=O)CN(C)C)no2)cc1C#N [Compound 67] : 9.30 to 10.30
CC(C)Oc1ccc(-c2nc(-c3cccc4c3CCC4NC3CCNCC3)no2)cc1C#N (racemic) [Compound 19] : < 8.30
CC(C)Oc1ccc(-c2nc(-c3cccc4c3CC[C@H]4NC(=O)N3CC[C@@H](N)C3)no2)cc1C#N [Compound 221] : 9.30 to 10.30
CC(C)Oc1ccc(-c2nc(-c3cccc4c3CC[C@@H]4NC(=O)OCCO)no2)cc1C#N [Compound 153] : 9.30 to 10.30

Below are some molecules; for each one, tell me its pEC50.
1. CC(C)Oc1ccc(-c2nc(-c3cccc4c3CC[C@H]4NS(=O)(=O)CC(=O)N3CCOCC3)no2)cc1C#N [Compound 192]
2. CC(C)Oc1ccc(-c2nc(-c3cccc4c3CC[C@H]4NCC(=O)N3CC3)no2)cc1C#N [Compound 127]
3. CCOc1ccc(-c2nc(-c3cccc4c3CCC4O)no2)cc1OCC (racemic) [Compound 254, reference compound]
4. CC(C)Oc1cc(C#N)cc(-c2nc(-c3cccc4c3CCC4N)no2)c1 (stereo in doubt) [Compound 97]
5. CC(C)Oc1ccc(-c2nc(-c3cccc4c3CC[C@H]4N(CCO)S(C)(=O)=O)no2)cc1C#N [Compound 112]
6. CCOc1ccc(-c2nc(-c3cccc4c3CC[C@@H]4O)no2)cc1C(F)(F)F [Compound 10]
7. CCOC(=O)N[C@@H]1CCc2c(-c3noc(-c4ccc(OC(C)C)c(C#N)c4)n3)cccc21 [Compound 151]
8. CCOC(=O)CNC1CCc2c(-c3noc(-c4ccc(OC(C)C)c(C#N)c4)n3)cccc21 (racemic) [Compound 40]

## Output
["> 10.30", "8.30 to 9.30", "9.30 to 10.30", "< 8.30", "8.30 to 9.30", "9.30 to 10.30", "8.30 to 9.30", "9.30 to 10.30"]

Below are some molecules; for each one, tell me its pEC50.
1. CNC(=O)CS(=O)(=O)N[C@H]1CCc2c(-c3noc(-c4ccc(OC(C)C)c(C#N)c4)n3)cccc21 [Compound 198]
2. CC(C)Oc1ccc(-c2nc(-c3cccc4c3CC[C@H]4NC(=O)N3CC[C@H](O)C3)no2)cc1C#N [Compound 231]
3. N#Cc1cc(-c2nc(-c3cccc4c3CCC4NCCO)no2)ccc1O (racemic) [Compound 102]
4. CC(C)Oc1ccc(-c2nc(-c3cccc4c3CCC4NC3CCOCC3)no2)cc1C#N (racemic) [Compound 23]

## Output
["9.30 to 10.30", "9.30 to 10.30", "< 8.30", "8.30 to 9.30"]

Below are some molecules; for each one, tell me its pEC50.
1. CC(C)Oc1ccc(-c2nc(-c3cccc4c3CC[C@H]4NS(=O)(=O)CC(N)=O)no2)cc1C#N [Compound 197]
2. COC(=O)C1CN(C2CCc3c(-c4noc(-c5ccc(OC(C)C)c(C#N)c5)n4)cccc32)C1 (racemic) [Compound 36]

## Output
1: > 10.30; 2: 9.30 to 10.30

Below are some molecules; for each one, tell me its pEC50.
1. CC(C)Oc1ccc(-c2nc(-c3cccc4c3CC[C@@H]4N(C)C)no2)cc1C#N [Compound 210]
2. CC(=O)N(CCO)[C@@H]1CCc2c(-c3noc(-c4ccc(OC(C)C)c(C#N)c4)n3)cccc21 [Compound 113]
3. CCN(CC)CCNC1CCc2c(-c3noc(-c4ccc(OC(C)C)c(C#N)c4)n3)cccc21 (racemic) [Compound 28]

## Output
8.30 to 9.30
8.30 to 9.30
8.30 to 9.30
